Source listed as ChEMBL document CHEMBL1821589.

# IC50 values compiled below
- system: Aromatase (Homo sapiens, UniProt P11511)
- Sequence (P11511 whole entry): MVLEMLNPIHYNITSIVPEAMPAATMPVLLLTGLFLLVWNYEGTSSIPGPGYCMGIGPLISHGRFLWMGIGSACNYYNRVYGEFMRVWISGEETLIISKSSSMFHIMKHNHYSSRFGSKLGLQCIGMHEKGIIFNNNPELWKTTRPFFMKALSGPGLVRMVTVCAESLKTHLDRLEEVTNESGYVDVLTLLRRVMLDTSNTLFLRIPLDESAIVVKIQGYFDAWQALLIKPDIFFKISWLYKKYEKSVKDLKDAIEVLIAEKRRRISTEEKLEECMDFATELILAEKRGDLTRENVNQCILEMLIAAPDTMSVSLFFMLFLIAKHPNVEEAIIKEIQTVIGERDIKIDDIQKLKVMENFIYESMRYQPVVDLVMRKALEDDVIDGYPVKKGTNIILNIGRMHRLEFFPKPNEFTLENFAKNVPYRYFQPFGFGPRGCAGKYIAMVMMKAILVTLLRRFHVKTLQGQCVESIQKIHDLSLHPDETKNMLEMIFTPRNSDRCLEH
Reply numerically in µM, unit not repeated.

{"compound": "c1ccc(Cn2ccnc2)cc1 [BENZYLIMIDAZOLE]", "IC50, µM": 0.15}
{"compound": "CCCc1cn(C(c2ccccc2)c2ccccc2)nn1", "IC50, µM": 11}

Tell me the measured IC50 of c1ccc(Cn2cc(C3CCCCC3)nn2)cc1 , please.
7.98

Tell me the measured IC50 of N#Cc1ccc(Cn2ccnn2)cc1 , please.
0.1

Tell me the measured IC50 of CCCCCCCc1cn(Cc2ccccc2)nn1 , please.
9.53

Tell me the measured IC50 of N#Cc1ccc(Cn2nccn2)cc1 , please.
12.2

* * *

Each entry below carries its measured IC50, system: Aromatase (Homo sapiens, UniProt P11511).

A selection of reference data follows.
{"chemSmiles": "CCCc1cn(Cc2ccccc2)nn1", "IC50": "12.6 µM"}
{"chemSmiles": "CCCCCCc1cn(C(c2ccccc2)c2ccccc2)nn1", "IC50": "14.8 µM"}
{"chemSmiles": "Clc1ccc(OCc2cn(Cc3ccccc3)nn2)cc1", "IC50": "5.04 µM"}
{"chemSmiles": "N#Cc1ccc(OCc2cn(Cc3ccccc3)nn2)cc1", "IC50": "1.36 µM"}
{"chemSmiles": "Cc1ccc(OCc2cn(Cc3ccccc3)nn2)cc1", "IC50": "2.27 µM"}

For the next question, use this compound.
Value wanted: IC50 (Aromatase (Homo sapiens, UniProt P11511)) of entry N#Cc1ccc(C(c2ccc(C#N)cc2)n2cc(COc3ccc([N+](=O)[O-])cc3)nn2)cc1
7.73 µM

* * *

Each entry below carries its measured IC50, system: Aromatase (Homo sapiens, UniProt P11511).
Reply numerically in µM, unit not repeated.

{"chemSmiles": "O=[N+]([O-])c1ccc(OCc2cn(C(c3ccccc3)c3ccccc3)nn2)cc1", "observationType": "IC50", "measured": 11.6}
{"chemSmiles": "c1ccc(Cn2cc(COc3ccccc3)nn2)cc1", "observationType": "IC50", "measured": 10.6}

For the next question, use this compound.
Tell me the measured IC50 of c1ccc(C(c2ccccc2)n2cc(C3CCCCC3)nn2)cc1 , please.
13.7
